measured.target: T1, soluble CGRP receptor (extracellular domains of human CRLR and human RAMP1) (human, UniProt Q16602 23-133; O60894 26-117)
T1 construct: the tag and the thrombin site are not described; also called soluble human CGRP receptor; CGRP receptor ECD
T1 sequence (Q16602 23-133, chain 1 of 2): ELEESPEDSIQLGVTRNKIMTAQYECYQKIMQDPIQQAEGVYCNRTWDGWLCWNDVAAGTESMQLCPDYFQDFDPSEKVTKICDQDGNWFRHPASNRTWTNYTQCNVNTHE
T1 sequence (O60894 26-117, chain 2 of 2): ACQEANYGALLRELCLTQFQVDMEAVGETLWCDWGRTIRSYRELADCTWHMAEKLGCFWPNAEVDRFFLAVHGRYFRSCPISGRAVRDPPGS
experimental.details: SPR (Biacore T200), antibody captured by goat anti-human Fc, soluble CGRP receptor as analyte, 1:1 model
In this section we review reported koff values for a set of binders.
readout.type: koff (s⁻¹)

- binder: "4E4 light chain R95A single-point alanine variant antibody (antibody, V domains shown, Recombinantly expressed as a monoclonal antibody) VH: QVQLVESGGGVVQPGRSLRLSCAASGFTFSSFGMHWVRQAPGKGLEWVAVISFDGSIKYSVDSVKGRFTISRDNSKNTLFLQMNSLRAEDTAVYYCARDRLNYYDSSGYYHYKYYGMAVWGQGTTVTVSS VL: QSVLTQPPSVSAAPGQKVTISCSGSSSNIGNNYVSWYQQLPGTAPKLLIYDNNKRPSGIPDRFSGSKSGTSTTLGITGLQTGDEADYYCGTWDSALSAVVFGGGTKLTVLG"
  val: 0.00077
- binder: "4E4 light chain Y33A single-point alanine variant antibody (antibody, V domains shown, Recombinantly expressed as a monoclonal antibody; also called L-Y33A) VH: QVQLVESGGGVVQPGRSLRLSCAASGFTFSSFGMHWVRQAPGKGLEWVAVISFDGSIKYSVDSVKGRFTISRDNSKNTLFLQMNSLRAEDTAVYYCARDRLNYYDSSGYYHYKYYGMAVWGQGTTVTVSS VL: QSVLTQPPSVSAAPGQKVTISCSGSSSNIGNNAVSWYQQLPGTAPKLLIYDNNKRPSGIPDRFSGSKSGTSTTLGITGLQTGDEADYYCGTWDSRLSAVVFGGGTKLTVLG"
  val: 0.00027
